# TESTED TARGET: Full length LIGHT R189A on HEK293FF cells (Homo sapiens (Human), UniProt O43557 1-240)
# Sequence (O43557 whole entry R189A): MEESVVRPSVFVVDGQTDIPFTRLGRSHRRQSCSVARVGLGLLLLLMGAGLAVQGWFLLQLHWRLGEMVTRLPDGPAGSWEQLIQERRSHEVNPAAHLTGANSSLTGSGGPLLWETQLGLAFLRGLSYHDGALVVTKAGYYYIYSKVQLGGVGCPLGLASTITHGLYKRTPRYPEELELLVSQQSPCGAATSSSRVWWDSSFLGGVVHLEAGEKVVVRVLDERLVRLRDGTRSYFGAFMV
# METHOD DESCRIPTION: flow cytometry, HEK293FF, mAb at EC50
READOUT KIND: % of WT binding (%)
The response must be a number in % with no trailing unit.

Consider the worked cases shown below.
Task: Could you tell me which % of WT binding is on file for 2E08 chimeric IgG4 mAb (antibody, V domains shown, Chimeric human IgG4 (S-to-P, L-to-E) with human CL, as m1; also called Parental 2E08) VH: QVQMKESGAELVRPGVSVKISCKGSGYTFTDYAIHWVKQSHAKTLEWIGVISTYYGDASYNQKFKGKATMTVDKSSSTAYMELARLTSDDSAIYYCARSRGEYGNYDAMDYWGQGTSVTVSS VL: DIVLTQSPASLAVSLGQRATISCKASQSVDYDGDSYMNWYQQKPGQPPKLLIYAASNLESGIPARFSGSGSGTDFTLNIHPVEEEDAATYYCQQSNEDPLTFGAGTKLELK ?
Output: 2

Task: Can you check 2B11 chimeric IgG4 mAb (antibody, V domains shown, Chimeric human IgG4 (S-to-P, L-to-E) with human CL, as m1; Often misprinted 2B111; also called Parental 2B11; 2B111) VH: EVQLVESGAELVRPGVSVKISCKGSGYTFTDYAIHWVKQSHAKSLEWIGVISTYYGDASYNQKFKGKATMTVDKSSSTAYMELARLTSEDSAIYYCARSRGEYGNYDAMDYWGQGTSVTVSS VL: DIVLTQSPASLAVSLGQRATISCRASESVDSYGNSFMHWYQQKPGQPPKLLIYRASNLESGIPARFSGSGSRTDFTLTINPVEADDVATYYCQQSNEDPYTFGGGTKLEIK next?
Output: 0

Next:
Task: Could you tell me which % of WT binding is on file for 3B04 chimeric IgG4 mAb (antibody, V domains shown, also called Parental 3B04) VH: QVQLQQPGAELVRPGASVTLSCKASGYTFTDYEMHWVKQTPVHGLEWIGEIDPETGDTAYSQKFKGKATLTADKSSSTAYMEFRSLTSEDSAVYYCSRETDYFFDYWGQGTTLTVSS VL: DIQMTQTPASLSASVGETVTITCGASENIYGALNWYQRKQGKSPQLLIYGATNLADGMSSRFSGSGSGRQYSLKISSLHPDDFATYYCQNVLTTPWTFGGGTKLEIK ?
Output: 0

These measurements were taken from patent US20210284747A1.
